Assay: self-splicing fitness, log relative to wild type (ln ratio); higher = more splicing; Tetrahymena group I intron in knt gene, E. coli kanamycin selection, DiMSum; sequences stand for … in CUCUCU…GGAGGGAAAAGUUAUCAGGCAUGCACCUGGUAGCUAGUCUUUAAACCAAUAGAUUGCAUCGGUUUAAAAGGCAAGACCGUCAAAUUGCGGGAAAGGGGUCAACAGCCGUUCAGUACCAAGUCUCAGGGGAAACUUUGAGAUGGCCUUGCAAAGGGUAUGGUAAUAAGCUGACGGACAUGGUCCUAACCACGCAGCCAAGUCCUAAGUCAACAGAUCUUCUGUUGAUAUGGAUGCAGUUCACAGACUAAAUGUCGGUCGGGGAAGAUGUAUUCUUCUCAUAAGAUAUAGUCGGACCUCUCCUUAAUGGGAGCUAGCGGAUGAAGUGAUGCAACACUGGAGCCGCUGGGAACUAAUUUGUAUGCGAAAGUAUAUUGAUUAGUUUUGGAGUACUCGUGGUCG;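 also: selection with 25 µg/mL kanamycin versus none on LB agar overnight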
Settings: 37 °C
Assign a class from recorded self-splicing fitness (ln); defined classes: bin 0 (below -2), bin 1 (-2 to below -0.7), bin 2 (-0.7 or more)

>>> print(df.to_string())
        primary_sequence  group_label
 0  GAUGAGCAAUAUUACGACGA        bin 1
 1  CCUUAGCAAUAUUACGGGUU        bin 1
 2  CGGCAGCAAUAUUACGCUCC        bin 1
 3  GAAAAGCAAUAUUACGUAAC        bin 1
 4  GUCGAGCAAUAUUACGAAUC        bin 1
 5  ACGAAGCAAUAUUACGGCGU        bin 1
 6  AGCCAGCAAUAUUACGGUGG        bin 0
 7  CUCUAGCAAUAUUACGUAGU        bin 0
 8  UCCUAGCAAUAUUACGAUAC        bin 0
 9  GAUCAGCAAUAUUACGCUUG        bin 2
10  GAUAAGCAAUAUUACGAUUA        bin 2
11  AAUAAGCAAUAUUACGGUCA        bin 2
12  GUGUAGCAAUAUUACGACCU        bin 2
13  CAAUAGCAAUAUUACGCUUA        bin 1
14  GUCCAGCAAUAUUACGUGAG        bin 2

These measurements were taken from the supplement of paper PMC7877785.
